Experimental Context: in n-heptane, 283.15 K
Quick reference: solubility (mole fraction) of the listed items.
Reported Property: solubility (mole fraction)

[[record]]
mol = "O=[N+]([O-])c1ccc(Cl)c(Cl)c1"
reported_value = 0.0424

[[record]]
mol = "O=[N+]([O-])c1cccc(Cl)c1Cl"
reported_value = 0.0128


###

Experimental Context: in tetrachloromethane, 300.65 K
Quick reference: solubility (mole fraction) of the listed items.
Reported Property: solubility (mole fraction)

[[record]]
mol = "O=[N+]([O-])c1ccc(Cl)c(Cl)c1"
reported_value = 0.722

[[record]]
mol = "O=[N+]([O-])c1cccc(Cl)c1Cl"
reported_value = 0.312


###

Quick reference: solubility (mole fraction) of the listed items.
Experimental Context: in n-butanol, 295.65 K
Reported Property: solubility (mole fraction)

[[record]]
mol = "O=[N+]([O-])c1ccc(Cl)c(Cl)c1"
reported_value = 0.0819

[[record]]
mol = "O=[N+]([O-])c1cccc(Cl)c1Cl"
reported_value = 0.0589


###

Quick reference: solubility (mole fraction) of the listed items.
Experimental Context: in isopropanol, 293.15 K
Reported Property: solubility (mole fraction)

[[record]]
mol = "O=[N+]([O-])c1cccc(Cl)c1Cl"
reported_value = 0.0286

[[record]]
mol = "O=[N+]([O-])c1ccc(Cl)c(Cl)c1"
reported_value = 0.0439


###

Experimental Context: in ethyl acetate, 300.65 K
Quick reference: solubility (mole fraction) of the listed items.
Reported Property: solubility (mole fraction)

[[record]]
mol = "O=[N+]([O-])c1ccc(Cl)c(Cl)c1"
reported_property = "solubility (mole fraction)"
reported_value = 0.822

[[record]]
mol = "O=[N+]([O-])c1cccc(Cl)c1Cl"
reported_property = "solubility (mole fraction)"
reported_value = 0.645


###

Quick reference: solubility (mole fraction) of the listed items.
Experimental Context: in cyclohexane, 298.15 K
Reported Property: solubility (mole fraction)

[[record]]
mol = "O=[N+]([O-])c1ccc(Cl)c(Cl)c1"
reported_value = 0.343

[[record]]
mol = "O=[N+]([O-])c1cccc(Cl)c1Cl"
reported_value = 0.0421


###

Experimental Context: in n-heptane, 293.15 K
Reported Property: solubility (mole fraction)

[[record]]
mol = "O=[N+]([O-])c1cccc(Cl)c1Cl"
reported_value = 0.0251

[[record]]
mol = "O=[N+]([O-])c1ccc(Cl)c(Cl)c1"
reported_value = 0.063


###

Experimental Context: in n-heptane, 285.65 K
Reported Property: solubility (mole fraction)

[[record]]
mol = "O=[N+]([O-])c1cccc(Cl)c1Cl"
reported_property = "solubility (mole fraction)"
reported_value = 0.0146

[[record]]
mol = "O=[N+]([O-])c1ccc(Cl)c(Cl)c1"
reported_property = "solubility (mole fraction)"
reported_value = 0.0451


###

Experimental Context: in ethyl acetate, 278.15 K
Reported Property: solubility (mole fraction)

[[record]]
mol = "O=[N+]([O-])c1ccc(Cl)c(Cl)c1"
reported_property = "solubility (mole fraction)"
reported_value = 0.249

[[record]]
mol = "O=[N+]([O-])c1cccc(Cl)c1Cl"
reported_property = "solubility (mole fraction)"
reported_value = 0.212


###

Experimental Context: in n-heptane, 298.15 K
Quick reference: solubility (mole fraction) of the listed items.
Reported Property: solubility (mole fraction)

[[record]]
mol = "O=[N+]([O-])c1ccc(Cl)c(Cl)c1"
reported_value = 0.0729

[[record]]
mol = "O=[N+]([O-])c1cccc(Cl)c1Cl"
reported_value = 0.0322


// provenance: BigSolDB 2.1
